Please provide measured inhibition at 20 ppm for the entries that follow.
# Test system: Glomerella laqenarium (Colletotrichum lagenarium)
# method.notes: Fungicidal activity against Glomerella lagenarium (Colletotrichum lagenarium) liquid culture / cucumber / preventative (anthracnose)
# Assay type: cell-based
# assay.conditions: Colletotrichum orbiculare; 20 ppm in the applied formulation; liquid culture in PDB, 24° C., 3 to 4 days after application; read-out: disease control compared to untreated control (inhibition of growth measured photometrically)

O=C(NC1(C2CC2)CC1)c1ccc(-c2noc(C(F)(F)F)n2)cc1F :: ≥ 80%
CCCCCCNC(=O)c1ccc(-c2noc(C(F)(F)F)n2)cc1F :: ≥ 80%
O=C(NCC1CCOC1)c1ccc(-c2noc(C(F)(F)F)n2)cc1Cl (stereo not drawn) :: ≥ 80%
C=CCNC(=O)c1ccc(-c2noc(C(F)(F)F)n2)cc1F :: ≥ 80%
COCCN(C(=O)c1ccc(-c2noc(C(F)(F)F)n2)cc1F)C(C)C :: ≥ 80%
CCN(C(=O)c1ccc(-c2noc(C(F)(F)F)n2)cc1)C1CCN(OC)CC1 :: ≥ 80%

Please state, for each entry, its recorded inhibition at 20 ppm.
1. O=C(NCc1ccc(F)cc1)c1ccc(-c2noc(C(F)(F)F)n2)cc1F
2. CC(C)(O)CNC(=O)c1ccc(-c2noc(C(F)(F)F)n2)cc1F

Response:
1: ≥ 80%; 2: ≥ 80%

Query: # lookup: inhibition at 20 ppm of Cc1nc(CN(C)C(=O)c2ccc(-c3noc(C(F)(F)F)n3)cc2F)cs1
Response: ≥ 80%

----------
test.readout: melting point

Guide cases for melting point, answers given:
O=C(NCc1ccccc1)c1ccc(-c2noc(C(F)(F)F)n2)cc1F :: 146 to 147.7 °C
O=C(NCC1CCOC1)c1ccc(-c2noc(C(F)(F)F)n2)cc1F (centres unmarked) :: 124.2 to 126.2 °C
Cc1nc(CN(C)C(=O)c2ccc(-c3noc(C(F)(F)F)n3)cc2F)cs1 :: 96.3 to 98.4 °C
O=C(NCc1ccc(F)cc1)c1ccc(-c2noc(C(F)(F)F)n2)cc1F :: 145 to 147 °C
CC(C)(CO)NC(=O)c1ccc(-c2noc(C(F)(F)F)n2)cc1 :: 130 to 135 °C

Please state, for each entry, its recorded melting point.
1. O=C(NCC1CC1)c1ccc(-c2noc(C(F)(F)F)n2)cc1F
2. Cc1ccc(CNC(=O)c2ccc(-c3noc(C(F)(F)F)n3)cc2)cc1
3. CCCNC(=O)c1ccc(-c2noc(C(F)(F)F)n2)cc1F
4. O=C(NCc1cnc(Cl)s1)c1ccc(-c2noc(C(F)(F)F)n2)cc1F
5. O=C(NCc1ccccc1F)c1ccc(-c2noc(C(F)(F)F)n2)cc1F

Response:
113.5 to 114.7 °C
198 to 203 °C
118.5 to 119.9 °C
127.8 to 130.8 °C
132 to 136 °C

----------
Please provide measured melting point for the entries that follow.

O=C(NCCc1ncc(C(F)(F)F)cc1Cl)c1ccc(-c2noc(C(F)(F)F)n2)cc1F :: 144.9 to 146.5 °C
O=C(NCCc1ccccc1)c1ccc(-c2noc(C(F)(F)F)n2)cc1F :: 130 to 131.9 °C
O=C(NCCc1ccc(F)cc1)c1ccc(-c2noc(C(F)(F)F)n2)cc1F :: 128.2 to 129.4 °C

Please state, for each entry, its recorded melting point.
1. N#CC(NC(=O)c1ccc(-c2noc(C(F)(F)F)n2)cc1F)c1cccs1 (stereo not drawn)
2. C#CC(C)(C)NC(=O)c1ccc(-c2noc(C(F)(F)F)n2)cc1F
3. CCNC(=O)c1ccc(-c2noc(C(F)(F)F)n2)cc1F

Response:
138.1 to 139.2 °C
69.2 to 69.7 °C
125 to 127 °C
